Just for reference, patent US8637681B2 is where these values come from.

test system: human colon cancer HT 29 transplanted tumor; test: Nude mice transplanted tumor test; format: in vivo, female Balb/cA nude mice; conditions: d0, at grouping before administration (baseline)
observation type: d0 Wave ± SD (average bodyweight of nude mice)
// response body must contain only the number

// d0 Wave ± SD (average bodyweight of nude mice) lookup, key: CCN(CC)CCC(=O)Nc1c(C)[nH]c(/C=C2\C(=O)Nc3ccc(F)cc32)c1C 18.6

One more molecule: CCN1CCN(CCC(=O)Nc2c(C)[nH]c(/C=C3\C(=O)Nc4ccc(F)cc43)c2C)CC1 18.7

Lookup CCN(CC)CC(=O)Nc1c(C)[nH]c(/C=C2\C(=O)Nc3ccc(Cl)cc32)c1C 18.9

Same again, this time with CCN(CC)CCS(=O)(=O)Nc1c(C)[nH]c(/C=C2\C(=O)Nc3ccc(F)cc32)c1C 19.6

Please give the result for Cc1[nH]c(/C=C2\C(=O)Nc3ccc(F)cc32)c(C)c1NC(=O)CCN1CCN(C)CC1 too. 18.5

Further, for Cc1[nH]c(/C=C2\C(=O)Nc3ccc(F)cc32)c(C)c1NC(=O)CCN1CCOCC1 ? 17.2

Can you handle Cc1[nH]c(/C=C2\C(=O)Nc3ccc(F)cc32)c(C)c1NC(=O)/C=C/CN(C)C next? 19.6

Now the molecule CCN(CC)CCC(=O)Nc1c(C)[nH]c(/C=C2\C(=O)Nc3ccc(Cl)cc32)c1C 18.8

Also check CCN(CC)CCNC(=O)c1c(C)[nH]c(/C=C2\C(=O)Nc3ccc(F)cc32)c1C [Sunitinib, reference compound] 19.4

One more molecule: CCN(CC)CC(=O)Nc1c(C)[nH]c(/C=C2\C(=O)Nc3ccc(F)cc32)c1C 19.6

Then what about the molecule CCN1CCN(CC(=O)Nc2c(C)[nH]c(/C=C3\C(=O)Nc4ccc(F)cc43)c2C)CC1 ? 19.1

Now the same for CCN(CC)CCC(=O)Nc1c(C)[nH]c(/C=C2\C(=O)Nc3ccc(Br)cc32)c1C 19.3

Item: Cc1[nH]c(/C=C2\C(=O)Nc3ccc(F)cc32)c(C)c1NC(=O)CN(C)C 19.7

Same for CCN(CC)CC(=O)Nc1c(C)[nH]c(/C=C2\C(=O)Nc3cc(C(F)(F)F)ccc32)c1C 18.6

Entry to check: Cc1[nH]c(/C=C2\C(=O)Nc3ccc(F)cc32)c(C)c1NC(=O)CCN1CCCCC1 19.1

Now try CCN(CC)CC(=O)Nc1c(C)[nH]c(/C=C2\C(=O)Nc3ccc(NC(C)=O)cc32)c1C . 18.8

* * *

test: Cytotoxicity test (SRB), A549; assay type: cell-based; conditions: human, A549 non-small cell lung cancer cells
observation type: IC50 at 72 h

What measured IC50 at 72 h goes with CCN(CC)CC(=O)Nc1c(C)[nH]c(/C=C2\C(=O)Nc3ccc(F)cc32)c1C ? > 30 µM

Another compound to look at: CCN(CC)CCNC(=O)c1c(C)[nH]c(/C=C2\C(=O)Nc3ccc(F)cc32)c1C [Sunitinib, reference compound] 11.5 µM

Again, but for CCN1CCN(CC(=O)Nc2c(C)[nH]c(/C=C3\C(=O)Nc4ccc(F)cc43)c2C)CC1 > 30 µM

Repeat for the following compound: Cc1[nH]c(/C=C2\C(=O)Nc3ccc(F)cc32)c(C)c1NC(=O)CCN1CCN(C)CC1 > 30 µM

What do you have for Cc1[nH]c(/C=C2\C(=O)Nc3ccc(F)cc32)c(C)c1NC(=O)CCN1CCOCC1 ? > 30 µM

* * *

Could you please report measured inhibition at 0.2 µg/mL for the items listed next?
Tested on: arterial ring angiogenesis in rats
Test: Inhibitory actions on arterial ring angiogenesis in rats
Type: cell-based
Details: Rattus norvegicus; 0.2 μg/ml; area covered by micrangiums vs control well; read-out: Inhibitory rate (%)
Experimental: This experiment was conducted by referring to the method described by R. F. Nicosia et al (Nicosia, R. F., et al. Am J Pathol., 1997, 151, 1379-1386). Rats were executed by cervical dislocation. The thoracic aorta was carefully separated, and placed in a container with physiological saline. The excess tissues were carefully cut off. The blood vessels were cut with a pair of ophthalmic scissors to form 1 mm thick vascular ring slices. […]
The answer is to be given in %; state only the numeric part.

Please report the recorded inhibition at 0.2 µg/mL for Cc1[nH]c(/C=C2\C(=O)Nc3ccc(F)cc32)c(C)c1NC(=O)CCN1CCCCC1 [Compound 13] . 93

Also Cc1[nH]c(/C=C2\C(=O)Nc3ccc(F)cc32)c(C)c1NC(=O)CN1CCCCC1 [Compound 16] , if possible. 91

Same thing, different compound: Cc1[nH]c(/C=C2\C(=O)Nc3ccc(F)cc32)c(C)c1NC(=O)CCN1CCOCC1 [Compound 12] 94

Now try Cc1[nH]c(/C=C2\C(=O)Nc3ccc(F)cc32)c(C)c1NC(=O)CCN1CCN(C)CC1 [Compound 11] . 99

Here is the next compound: CCN(CC)CCNC(=O)c1c(C)[nH]c(/C=C2\C(=O)Nc3ccc(F)cc32)c1C [Sunitinib, reference compound] 95

Similarly, CCN(CC)CCC(=O)Nc1c(C)[nH]c(/C=C2\C(=O)Nc3ccc(F)cc32)c1C [Compound 1] ? 99

Do the same for CCN(CC)CC(=O)Nc1c(C)[nH]c(/C=C2\C(=O)Nc3cc(C)ccc32)c1C [Compound 27] please 78

Same question for Cc1[nH]c(/C=C2\C(=O)Nc3ccc(F)cc32)c(C)c1NC(=O)CN1CCN(C)CC1 [Compound 15] please. 89

Further, for Cc1[nH]c(/C=C2\C(=O)Nc3ccc(F)cc32)c(C)c1NC(=O)CCN1CCCC1 [Compound 14] ? 88

Request: CCN(CC)CC(=O)Nc1c(C)[nH]c(/C=C2\C(=O)Nc3ccc(NS(C)(=O)=O)cc32)c1C [Compound 25] 89

# repeat for Cc1[nH]c(/C=C2\C(=O)Nc3ccc(F)cc32)c(C)c1NC(=O)CCCN(C)C [Compound 5] 93

Now consider Cc1[nH]c(/C=C2\C(=O)Nc3ccc(F)cc32)c(C)c1NC(=O)CN1CCOCC1 [Compound 19] and answer again. 89

One more compound: Cc1[nH]c(/C=C2\C(=O)Nc3ccc(F)cc32)c(C)c1NC(=O)CCN(C)C [Compound 6] 92

Also, CCN(CC)CC(=O)Nc1c(C)[nH]c(/C=C2\C(=O)Nc3cc(C(F)(F)F)ccc32)c1C [Compound 24] please. 98

Likewise for Cc1[nH]c(/C=C2\C(=O)Nc3ccc(F)cc32)c(C)c1NC(=O)CN1CCCC1 [Compound 17] ? 89

Do the same for CCN(CC)CCC(=O)Nc1c(C)[nH]c(/C=C2\C(=O)Nc3ccc(NS(C)(=O)=O)cc32)c1C [Compound 8] please 94

Try CCN(CC)CCS(=O)(=O)Nc1c(C)[nH]c(/C=C2\C(=O)Nc3ccc(F)cc32)c1C [Compound 9] next. 93

* * *

assay: Cytotoxicity test (SRB), Hela; format: cell-based; details: human, Hela cervical cancer cells
observation type: IC50 at 72 h (µM)
Answer format: numeric, µM implied, no suffix.

Item under review: CCN(CC)CCNC(=O)c1c(C)[nH]c(/C=C2\C(=O)Nc3ccc(F)cc32)c1C [Sunitinib, reference compound] . Reported IC50 at 72 h? 2.03

Lookup CCN(CC)CC(=O)Nc1c(C)[nH]c(/C=C2\C(=O)Nc3ccc(F)cc32)c1C 5.21

Query CCN1CCN(CC(=O)Nc2c(C)[nH]c(/C=C3\C(=O)Nc4ccc(F)cc43)c2C)CC1 next 4.15

Moving on to CCN(CC)CC(=O)Nc1c(C)[nH]c(/C=C2\C(=O)Nc3ccc([N+](=O)[O-])cc32)c1C 4.62

* * *

system: human colon cancer HT 29 transplanted tumor; assay: Nude mice transplanted tumor test; format: in vivo, female Balb/cA nude mice; settings: d0, at grouping before administration (baseline)
observation type: d0 Wave ± SD (average bodyweight of nude mice)

Value lookup for d0 Wave ± SD (average bodyweight of nude mice); key = CCN(CC)CCC(=O)Nc1c(C)[nH]c(/C=C2\C(=O)Nc3ccc(NS(C)(=O)=O)cc32)c1C 19.2 ± 0.32

And Cc1[nH]c(/C=C2\C(=O)Nc3ccc(F)cc32)c(C)c1NC(=O)CCN(C)C ? 18.7 ± 0.38

And then Cc1[nH]c(/C=C2\C(=O)Nc3ccc(F)cc32)c(C)c1NC(=O)CN1CCCC1 , what is it? 18.9 ± 0.58

Param item: Cc1[nH]c(/C=C2\C(=O)Nc3ccc(F)cc32)c(C)c1NC(=O)CN1CCCCC1 19.5 ± 0.46
